pIC50: −log10 of the molar value.
Listed here: compounds with reported pIC50 for UniProtKB P80457.
Sequence (P80457 whole entry): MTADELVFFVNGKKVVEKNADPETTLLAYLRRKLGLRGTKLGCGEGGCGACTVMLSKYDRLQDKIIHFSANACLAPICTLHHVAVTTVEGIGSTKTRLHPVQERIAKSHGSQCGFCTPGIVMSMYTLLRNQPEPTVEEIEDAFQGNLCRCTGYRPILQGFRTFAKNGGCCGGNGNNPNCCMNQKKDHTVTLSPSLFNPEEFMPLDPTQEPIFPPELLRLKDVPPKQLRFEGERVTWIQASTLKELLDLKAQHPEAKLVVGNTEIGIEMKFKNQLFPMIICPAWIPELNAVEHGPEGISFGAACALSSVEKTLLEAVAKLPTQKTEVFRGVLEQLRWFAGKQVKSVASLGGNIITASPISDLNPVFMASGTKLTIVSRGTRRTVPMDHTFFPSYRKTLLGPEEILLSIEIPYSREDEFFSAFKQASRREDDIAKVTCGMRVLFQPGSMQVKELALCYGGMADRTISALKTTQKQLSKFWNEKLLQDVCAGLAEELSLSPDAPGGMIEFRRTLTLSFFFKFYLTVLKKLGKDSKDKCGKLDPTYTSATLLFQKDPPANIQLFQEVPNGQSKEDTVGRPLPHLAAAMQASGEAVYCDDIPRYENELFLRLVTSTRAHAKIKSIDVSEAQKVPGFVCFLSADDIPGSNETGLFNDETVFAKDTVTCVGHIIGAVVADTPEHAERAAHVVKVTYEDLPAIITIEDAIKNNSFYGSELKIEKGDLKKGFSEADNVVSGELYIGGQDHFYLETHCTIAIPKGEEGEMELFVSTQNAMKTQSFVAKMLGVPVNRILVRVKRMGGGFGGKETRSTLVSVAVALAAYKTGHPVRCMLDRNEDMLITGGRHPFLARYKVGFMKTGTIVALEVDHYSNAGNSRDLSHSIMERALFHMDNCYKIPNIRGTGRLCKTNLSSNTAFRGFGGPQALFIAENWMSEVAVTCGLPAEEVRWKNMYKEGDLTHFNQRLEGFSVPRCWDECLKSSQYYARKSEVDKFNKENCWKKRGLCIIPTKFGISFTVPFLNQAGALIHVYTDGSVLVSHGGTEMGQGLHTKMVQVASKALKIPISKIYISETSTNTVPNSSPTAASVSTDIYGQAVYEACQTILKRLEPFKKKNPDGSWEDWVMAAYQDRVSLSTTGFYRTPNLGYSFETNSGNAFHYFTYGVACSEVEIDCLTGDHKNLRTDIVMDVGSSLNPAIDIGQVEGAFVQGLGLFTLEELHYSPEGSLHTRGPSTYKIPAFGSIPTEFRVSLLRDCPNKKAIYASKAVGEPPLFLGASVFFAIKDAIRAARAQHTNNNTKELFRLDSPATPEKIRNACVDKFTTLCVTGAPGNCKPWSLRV

{"columns": ["COMPOUND", "pIC50"],
 "data": [
  ["O=C(O)CC(=O)OC[C@H]1O[C@@H](Oc2cc(O)c3c(=O)cc(-c4ccc(O)c(O)c4)oc3c2)[C@H](O)[C@@H](O)[C@@H]1O [Compound 15, Luteolin 7-O-6′-malonyl glucoside]", 2.69],
  ["O=c1cc(-c2ccc(O)c(O)c2)oc2cc(O[C@@H]3O[C@H](CO)[C@@H](O)[C@H](O)[C@H]3O[C@@H]3OC[C@](O)(CO)[C@H]3O)cc(O)c12 [Compound 9, Luteolin 7-O-apiosylglucoside]", 2.50],
  ["O=c1cc(-c2ccc(O)c(O)c2)oc2cc(O[C@@H]3O[C@H](CO)[C@@H](O)[C@H](O)[C@H]3O)cc(O)c12 [Compound 10, Luteolin 7-O-glucoside]", 3.01],
  ["O=c1cc(-c2ccc(O)c(O)c2)oc2cc(O)cc(O)c12 [Compound 21, Luteolin]", 4.16]
]}

From: paper PMC10458824
